System: Fibroblast
Test: Multiplex assay against human fibroblast
Assay type: toxicity, cell-based
Settings: 24 h, 10 µM, compound concentration 10 uM, replicate 1
Non-standard residues stand in square brackets, D forms with d. Residues, ends and D or L forms follow the SMILES beside them.
result.type: Population Healthy Nuclei (%)
Numeric only. Scale: %

Consider the molecule CCc1nn2c(C)cc(C)nc2c1Cc1ccc(-c2nnc(C3CCNCC3)o2)cc1 tested on Fibroblast; state its Population Healthy Nuclei (%).
64

State, for Fibroblast, measured Population Healthy Nuclei (%) of the molecule listed here: CC(C)(O)C(=O)N1CCN(c2ccc(C(F)(F)F)c(C3=C(c4c[nH]c5ccccc45)C(=O)NC3=O)c2)CC1
40

# lookup: Fibroblast Population Healthy Nuclei (%), key = O=C(O)CCC/C=C\CC1C(O)CC(O)C1/C=C/C(O)COc1cccc(Cl)c1 (configuration not stated) [CLOPROSTENOL]
57

# return Population Healthy Nuclei (%) of CCn1c(-c2nc3cc(C(=O)N4CCCC(N)C4)ccc3n2C)cc2ccccc21.Cl (configuration not stated) (system: Fibroblast)
66

Answer with Population Healthy Nuclei (%) of Nc1nc(CC(=O)Nc2ccc(CCNC[C@H](O)c3ccccc3)cc2)cs1 [MIRABEGRON] measured for Fibroblast.
75

Provide Fibroblast Population Healthy Nuclei (%) reading for CCCCC[C@H](O)/C=C/[C@H]1[C@H](O)CC(=O)[C@@H]1CCCCCCC(=O)O [ALPROSTADIL] .
69

Identify measured Population Healthy Nuclei (%) obtained with Fibroblast for Cc1cc(=O)n(C)c2cc(N3C(=O)CC[C@H](NS(=O)(=O)CC(C)C)[C@H]3c3ccc(Cl)cc3)ccc12 .
46

Specify the recorded Population Healthy Nuclei (%) for CC(C)(C)c1ccc(CSc2cnn(C(C)(C)C)c(=O)c2Cl)cc1 [PYRIDABEN] , system: Fibroblast.
62

Quote Fibroblast Population Healthy Nuclei (%) for entry O=C(NCCNCC(O)COc1ccc(O)cc1)N1CCOCC1.O=C(NCCNCC(O)COc1ccc(O)cc1)N1CCOCC1.O=C(O)/C=C/C(=O)O (configuration not stated) [XAMOTEROL FUMARATE] .
67

Report value: Population Healthy Nuclei (%), system: Fibroblast, molecule: CN1CCC(C(=O)c2cccc(NC(=O)c3c(F)cc(F)cc3F)n2)CC1
71

// fetch Population Healthy Nuclei (%) for CC(C)C[C@@H]1NC(=O)[C@@H](C(C)C)NC(=O)[C@@H]2CCCN2C(=O)[C@@H](CC(=O)O)NC(=O)[C@@H](Cc2c[nH]c3ccccc23)NC1=O [BQ-123] (cyclo(L[dW][dD]P[dV])) ; system: Fibroblast
64

Report Population Healthy Nuclei (%) under test system Fibroblast for Cc1nn(C)c2nc(NNC(=O)Nc3cc(Cl)nc(Cl)c3)cc(C(C)C)c12 .
69

Provide Population Healthy Nuclei (%), tested on Fibroblast, for C[C@@H]1CC(=O)Nc2cccc(-c3ccc4c(c3)c(-c3cnn(C)c3)nn4C)c2N1 .
69

Please look at COC(c1ccccc1)(c1ccccc1)[C@H](Oc1nc(C)cc(C)n1)C(=O)O [AMBRISENTAN] and tell me its recorded Population Healthy Nuclei (%) on Fibroblast.
68

Give Population Healthy Nuclei (%) for this entry on Fibroblast: CN1CCN(c2ccc(Nc3c4ccccc4nc4ccccc34)cc2)CC1.Cl.Cl.O
39

Give Population Healthy Nuclei (%) only, for Cn1cc(C(=O)OCC2CCN(CCNS(C)(=O)=O)CC2)c2ccccc21 , using Fibroblast data.
53

State, for Fibroblast, measured Population Healthy Nuclei (%) of the molecule listed here: C[C@H](NC(=O)CNC(=O)c1cccc(Cl)c1)c1ccccc1
61
